protocol: Stability in simulated gastric acid assessed as compound remaining at pH 1.3 measured at 0.5 hrs
Type: ADME
assaySetup: read-out: Stability
recordedEndpoint: remaining at 0.5 h (%)
Give just the number in %; leave the unit off.

Task: Suppose we examine the molecule CC(C)N/N=C/c1ccc(-c2ccc(N3C[C@H](CO)OC3=O)cc2F)cn1 ; what remaining at 0.5 h value has been reported?
Output: 96.7

====

protocol: Volume of distribution at steady state in ICR mouse at 1 mg/kg, iv measured upto 24 hrs by LC-MS analysis
Assay type: ADME, organism-based
assaySetup: in vivo, read-out: Vdss
recordedEndpoint: Vd (L/kg)
Give just the number in L/kg; leave the unit off.

Examples with answers:
compound=CC(C)N/N=C/c1ccc(-c2ccc(N3C[C@H](CO)OC3=O)cc2F)cn1 recordedendpoint=Vd endpointvalue=0.42
compound=O=C1O[C@@H](CO)CN1c1ccc(-c2ccc(/C=N/N3CCOCC3)nc2)c(F)c1 recordedendpoint=Vd endpointvalue=0.87
compound=O=C1O[C@@H](CO)CN1c1ccc(-c2ccc(/C=N/N3CCCCC3)nc2)c(F)c1 recordedendpoint=Vd endpointvalue=1.31

# ---- query compound ----
Task: Suppose we examine the compound CC(=O)NC[C@H]1CN(c2ccc(N3CCOCC3)c(F)c2)C(=O)O1 [LINEZOLID] ; what Vd value has been reported?
Output: 0.56

====

Recorded pIC50 values (Cytochrome P450 2C19 (Homo sapiens, UniProt P33261)) are given below.
Convention used: pIC50 is expressed as -log10 of the molar concentration.

chemsmiles=O=C1O[C@@H](CO)CN1c1ccc(-c2ccc(/C=N/N3CCCCC3)nc2)c(F)c1 studysystem="Cytochrome P450 2C19 (Homo sapiens, UniProt P33261)" recordedendpoint=pIC50 endpointvalue=6.07

# ---- query compound ----
Task: Quick check: pIC50 on Cytochrome P450 2C19 (Homo sapiens, UniProt P33261), item CC(C)N/N=C/c1ccc(-c2ccc(N3C[C@H](CO)OC3=O)cc2F)cn1 ?
Output: 4.96

====

protocol: Tmax in Sprague-Dawley rat at 10 mg/kg, IG measured upto 24 hrs by LC-MS analysis
Type: ADME, organism-based
assaySetup: in vivo, po
recordedEndpoint: Tmax

Examples with answers:
compound=O=C1O[C@@H](CO)CN1c1ccc(-c2ccc(/C=N/N3CCOCC3)nc2)c(F)c1 endpointvalue="79.8 min"
compound=O=C1O[C@@H](CO)CN1c1ccc(-c2ccc(/C=N/N3CCCCC3)nc2)c(F)c1 endpointvalue="100 min"
compound=O=C1O[C@@H](CO)CN1c1ccc(-c2ccc(/C=N/N3CCS(=O)(=O)CC3)nc2)c(F)c1 endpointvalue="25.2 min"

Task: Suppose we examine the compound CC(=O)NC[C@H]1CN(c2ccc(-c3ccc(/C=N/N4CCS(=O)(=O)CC4)nc3)c(F)c2)C(=O)O1 ; what Tmax value has been reported?
Output: 30 min

Task: Now the compound CC(=O)NC[C@H]1CN(c2ccc(N3CCOCC3)c(F)c2)C(=O)O1 [LINEZOLID]
Output: 30 min

Task: Now the compound CC(C)N/N=C/c1ccc(-c2ccc(N3C[C@H](CO)OC3=O)cc2F)cn1
Output: 70.2 min

====

Here, each record is paired with measured fraction unbound at 6 h data.
protocol: Plasma protein binding in mouse incubated for 6 hrs by LC-MS/MS analysis
Assay type: ADME, cell-free
assaySetup: read-out: PPB (converted)

Examples with answers:
chemsmiles=O=C1O[C@@H](CO)CN1c1ccc(-c2ccc(/C=N/N3CCCCC3)nc2)c(F)c1 recordedendpoint="fraction unbound at 6 h" endpointvalue=0.013
chemsmiles=O=C1O[C@@H](CO)CN1c1ccc(-c2ccc(/C=N/N3CCOCC3)nc2)c(F)c1 recordedendpoint="fraction unbound at 6 h" endpointvalue=0.117
chemsmiles=O=C1O[C@@H](CO)CN1c1ccc(-c2ccc(/C=N/N3CCS(=O)(=O)CC3)nc2)c(F)c1 recordedendpoint="fraction unbound at 6 h" endpointvalue=0.245

Task: Suppose we examine the compound CC(=O)NC[C@H]1CN(c2ccc(N3CCOCC3)c(F)c2)C(=O)O1 ; what fraction unbound at 6 h value has been reported?
Output: 0.721

Task: Now the compound CC(C)N/N=C/c1ccc(-c2ccc(N3C[C@H](CO)OC3=O)cc2F)cn1
Output: 0.048
